Target: human recombinant 5-HT2A receptor (Homo sapiens (Human))
Experimental details: biochemical
Assay type: binding
Setup conditions: [3H]-Ketanserin 3 nmol/L, Jump-In HEK cell membrane; class symbols; read-out: h-5-HT2A Ki
Measured quantity: Ki

* CC(C)COc1ccc(CNC(=O)N(Cc2cn(C)c3ccccc23)C2CCN(C)CC2)cc1 | > 0.1 µM
* CC(C)CNc1ccc(CNC(=O)N(Cc2ccc(F)cn2)C2CCN(C)CC2)cc1 | < 0.01 µM
* CN1CCC(N(Cc2ccc(F)cn2)C(=O)NCc2ccc(OCC(F)(F)F)cc2)CC1 | < 0.01 µM
* CC(C)COc1ccc(CNC(=O)N(Cc2ncccc2F)[C@@H]2CCNC[C@@H]2F)cc1 (racemic) | 0.01 to 0.1 µM
* CC(C)COc1ccc(CNC(=O)N(Cc2ccn(C)n2)C2CCNCC23CC3)cc1 (racemic) | < 0.01 µM
* CC(C)COc1ccc(CNC(=O)N(Cc2ccn(C)c2)[C@@H]2CCN(C)C[C@@H]2F)cc1 (racemic) | < 0.01 µM

Then this compound:
// field: Ki; key: CN1CCC(N(Cc2ccn(C)n2)C(=O)NCc2ccc(OCC3CC3)cc2)C2(CC2)C1 (racemic) ; value = < 0.01 µM

----------
Target: human recombinant 5-HT2C receptor (Homo sapiens (Human), UniProt P28335)
Sequence (P28335 whole entry, looked up): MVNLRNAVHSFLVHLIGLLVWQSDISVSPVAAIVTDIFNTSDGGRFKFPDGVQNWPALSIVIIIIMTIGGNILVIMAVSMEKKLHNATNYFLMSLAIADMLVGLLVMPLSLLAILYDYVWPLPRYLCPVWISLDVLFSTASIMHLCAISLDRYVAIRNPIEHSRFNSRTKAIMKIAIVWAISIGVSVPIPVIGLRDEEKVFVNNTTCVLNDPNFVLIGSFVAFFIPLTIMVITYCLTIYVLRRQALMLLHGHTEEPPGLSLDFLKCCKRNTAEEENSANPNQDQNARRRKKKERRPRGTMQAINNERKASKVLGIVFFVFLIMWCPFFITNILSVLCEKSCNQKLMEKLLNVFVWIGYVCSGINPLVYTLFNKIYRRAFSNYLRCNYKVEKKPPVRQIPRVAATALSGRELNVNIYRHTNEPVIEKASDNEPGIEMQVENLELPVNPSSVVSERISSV
Experimental details: biochemical
Assay type: binding
Setup conditions: human serotonin 5-HT2C receptor binding, [3H]-Mesulergine; read-out: h-5-HT2C Ki
Method: Test Example 2: 5-HT2C Receptor Binding Inhibition Test (Each experimental condition) Cell membrane: 0.5 μg of Jump-In HEK cell membrane (expressing human recombinant 5-HT2C receptor) per well […] The Kd value was calculated when the lot of cell membrane was changed. […] The Saturation curve was drawn from the measured value, and the Kd value was calculated from the slope of the Scatchard Plot. […]
pKi: −log10 of the molar value.
Measured quantity: pKi

Here is how some molecules turned out for pKi.
- CC(C)COc1ccc(CNC(=O)N(Cc2ccc(F)cn2)[C@H]2CCN(C)C[C@H]2F)cc1 [Compound I-103]: > 8.00
- CN1CCC(N(Cc2ccc(F)cn2)C(=O)NCc2ccc(N(C)C)cc2)CC1 [Compound I-121]: < 7.00
- COc1ccc(CNC(=O)N(Cc2cc(C)n(C)n2)C2CCN(C)CC23CC3)cc1 (racemic) [Compound I-104]: > 8.00
- CCCOc1ccc(CNC(=O)N(Cc2ccn(C)n2)C2CCNCC23CC3)cc1 (racemic) [Compound I-107]: 7.00 to 8.00
- CC(C)COc1ccc(CNC(=O)N(Cc2ccn(C(F)F)n2)C2CCN(C)CC2)cc1 [Compound I-118]: 7.00 to 8.00
- Cc1ccc(CNC(=O)N(Cc2ccc(F)cn2)C2CCN(C)CC23CC3)cc1 (racemic) [Compound I-100]: 7.00 to 8.00
- CN1CCC(N(Cc2ccc(F)cn2)C(=O)NCc2ccc(OC3CC3)cc2)CC1 [Compound I-113]: 7.00 to 8.00

Data point: CC(C)COc1ccc(CNC(=O)N(Cc2ccc(F)cn2)C2CCN(C)C(CO)C2)cc1 (centres unmarked) [Compound I-089] ; pKi = 7.00 to 8.00

----------
Target: human recombinant 5-HT2A receptor (Homo sapiens (Human))
Experimental details: biochemical
Assay type: binding
Setup conditions: [3H]-Ketanserin 3 nmol/L, Jump-In HEK cell membrane; read-out: human serotonin 5-HT2A receptor binding activity, Ki
pKi: −log10 of the molar value.
Label rule, in plain words: pKi of 9 and up is MET, under 9 is NOT MET.

Qu. Answer whether pKi of `CC(C)COc1ccc(CNC(=O)N(Cc2cc3c(cn2)OCCO3)C2CCN(C)CC2)cc1` is greater than or equal to 9.
Ans. NOT MET

Qu. Check this compound for pKi at or above 9: `CC(C)COc1ccc(CNC(=O)N(Cc2ccc(Cl)cn2)C2CCN(C)CC2)cc1`
Ans. MET

Qu. Entry `CN1CCC(N(Cc2ccc(F)cn2)C(=O)NCc2ccc(Br)cc2)CC1` : is its pKi no less than 9?
Ans. NOT MET

Qu. Check this compound for pKi at or above 9: `CC(C)COc1ccc(CNC(=O)N(Cc2cc(CF)n(C)n2)[C@H]2CCN(C)C[C@H]2F)cc1`
Ans. NOT MET

Qu. For this compound, is measured pKi 9 or higher? `CN1CCC(N(Cc2ccc(F)cn2)C(=O)NCc2cccc(O)c2)CC1`
Ans. NOT MET

Qu. Identify whether the reported pKi of the following compound is 9 or greater: `CC(C)COc1ccc(CNC(=O)N(Cc2ccc(F)c3ccoc23)C2CCN(C)CC2)cc1`
Ans. NOT MET

----------
Target: human recombinant 5-HT2A receptor (Homo sapiens (Human), UniProt P28223)
Experimental details: biochemical
Format: binding
Setup conditions: [3H]-Ketanserin 3 nmol/L, Jump-In HEK cell membrane; class symbols; read-out: h-5-HT2A Ki
Measured quantity: Ki

* CC(C)COc1ccc(CNC(=O)N(Cc2cn(C)c3cccnc23)C2CCN(C)CC2)cc1 | 10 to 100 nM
* Cc1cnc(CN(C(=O)NCc2ccc(OCC(C)C)cc2)C2CCN(C)CC2)cn1 | 10 to 100 nM
* CN1CCC(N(Cc2ccc(F)cn2)C(=O)NCc2ccc(OC3CC3)cc2)CC1 | < 10 nM
* CCCOc1ccc(CNC(=O)N(Cc2cc(C)n(C)n2)[C@H]2CCNC[C@H]2F)cc1 | < 10 nM
* Cc1ccc(CNC(=O)N(Cc2cc(C)n(C)n2)C2CCN(C)CC23CC3)cc1 (racemic) | < 10 nM
* CN1CCC(N(Cc2ccc(F)cn2)C(=O)NCc2ccc(OCC(F)(F)C(F)F)cc2)CC1 | < 10 nM
* COc1ccc(CNC(=O)N(Cc2cc(C)n(C)n2)C2CCN(C)CC23CC3)cc1 (racemic) | < 10 nM

Moving on to the next compound.
According to the records, this compound `CC(C)COc1ccc(CNC(=O)N(Cc2ccc(F)cn2)[C@H]2CCNC[C@H]2F)cc1` displays Ki of < 10 nM

----------
Items are presented alongside their recorded Ki.
Target: human recombinant 5-HT2A receptor (Homo sapiens (Human), UniProt P28223)
Experimental details: biochemical
Type: binding
Setup conditions: [3H]-Ketanserin 3 nmol/L, Jump-In HEK cell membrane; class symbols; read-out: h-5-HT2A Ki
Description: Test Example 1: 5-HT2A Receptor Binding Inhibition Test (Each Experimental Condition) Cell membrane: 15 μg of Jump-In HEK cell membrane (expressing human recombinant 5-HT2A receptor) per well […] The Kd value was calculated when the lot of cell membrane was changed. […] The Saturation curve was drawn from the measured value, and the Kd value was calculated from the slope of the Scatchard Plot. […]

* COc1ccc(COC(=O)N(Cc2ccn(C)c2)C2CCN(C)CC2)cc1 | < 10 nM
* CC(C)COc1ccc(CNC(=O)N(Cc2ccc(F)cn2)C2CCNCC2(F)F)cc1 (racemic) | < 10 nM
* CC(C)COc1ccc(CNC(=O)N(Cc2ccc(F)c3cc[nH]c23)C2CCN(C)CC2)cc1 | > 100 nM

Item: `C[C@H](F)COc1ccc(CNC(=O)N(Cc2ccc(F)cn2)C2CCN(C)CC2)cc1` | Ki: < 10 nM

Quick note, Ki for `Cc1cc(CN(C(=O)NCc2ccc(OCC(C)C)cc2)C2CCN(C)CC2)nn1C` landed at < 10 nM

Reported Ki of Cc1cc(CN(C(=O)NCc2ccc(OCC(C)C)cc2)C2CCN(C)CC23CC3)nn1C (racemic) : < 10 nM

// recorded Ki for CCCOc1ccc(CNC(=O)N(Cc2cc(C)n(C)n2)C2CCN(C)CC23CC3)cc1 (racemic) : < 10 nM

Ki reported for this compound CN1CCC(N(Cc2ccn(C)n2)C(=O)NCc2ccc(OC(F)F)cc2)C2(CC2)C1 (racemic) : < 10 nM

----------
Target: human recombinant 5-HT2C receptor (Homo sapiens (Human), UniProt P28335)
Experimental details: biochemical
Type: binding
Setup conditions: human serotonin 5-HT2C receptor binding, [3H]-Mesulergine; read-out: h-5-HT2C Ki
Measured quantity: Ki

* CCCOc1ccc(CNC(=O)N(Cc2cc(C)n(C)n2)C2CCN(C)CC23CC3)cc1 (racemic) [Compound I-109] | < 10 nM
* CC(C)COc1ccc(CNC(=O)N(Cc2ccc(F)cn2)C2CCNCC2(F)F)cc1 (racemic) [Compound I-091] | < 10 nM
* C=Cc1ccc(CNC(=O)N(Cc2ccc(F)cn2)C2CCN(C)CC2)cc1 [Compound I-083] | 10 to 100 nM
* CN1CCC(N(Cc2ccn(C)n2)C(=O)NCc2ccc(OC(F)F)cc2)C2(CC2)C1 (racemic) [Compound I-111] | < 10 nM
* C[C@H](F)COc1ccc(CNC(=O)N(Cc2ccc(F)cn2)C2CCN(C)CC2)cc1 [Compound I-097] | 10 to 100 nM
* CCCOc1ccc(CNC(=O)N(Cc2cc(C)n(C)n2)[C@@H]2CCN(C)CC23CC3)cc1 [Compound I-127] | > 100 nM
* CN1CCC(N(Cc2ccc(F)cn2)C(=O)NCc2ccc(C3CC3)cc2)CC1 [Compound I-125] | 10 to 100 nM
* CC(C)COc1ccc(CNC(=O)N(Cc2ccc(F)cn2)[C@H]2CCNC[C@H]2F)cc1 [Compound I-115] | < 10 nM

Lab note: Cc1ccc(CNC(=O)N(Cc2ccc(F)cn2)C2CCNCC23CC3)cc1 (racemic) [Compound I-101] gave Ki of 10 to 100 nM
